From: the C3SDB collision cross section collection

Each item that follows carries a reported collision cross section (N2).
Details: [M-H]-; instrument: DT; single field, calibrated with ESI Low Concentration Tuning Mix (Agilent)
I only need the number, in Å², no unit after it.

Ask: Field request: collision cross section (N2) | item: CC[C@H](O)C(=O)O [2-HYDROXYBUTYRATE]
Result: 117.2

Ask: Field request: collision cross section (N2) | item: NCCP(=O)(O)O [(2-AMINOETHYL)PHOSPHONATE]
Result: 120

Ask: Field request: collision cross section (N2) | item: N[C@@H](Cc1cc(I)c(Oc2ccc(O)cc2)c(I)c1)C(=O)O
Result: 188.2

---

Conditions: [M+H]+; instrument: DT; single field, calibrated with Agilent tune mix (Agilent)
Each item that follows carries a reported collision cross section (N2).
I only need the number, in Å², no unit after it.

{"columns": ["compound", "collision cross section (N2), Å²"],
 "data": [
  ["O=C(O)c1ccc[n+]([C@@H]2O[C@H](COP(=O)(O)O)[C@@H](O)[C@H]2O)c1 [Nicotinate D-ribonucleotide]", 164.8],
  ["COc1cc(C(=O)O)ccc1O", 136.2]
]}

Ask: Field request: collision cross section (N2) | item: O=c1nc2[nH][nH]cc-2c(=O)[nH]1
Result: 126.7

Ask: Field request: collision cross section (N2) | item: Nc1ccn([C@H]2C[C@H](O)[C@@H](COP(=O)(O)OP(=O)(O)OP(=O)(O)O)O2)c(=O)n1
Result: 184.9

Ask: Field request: collision cross section (N2) | item: O=C(O)CNC(=O)c1cccnc1
Result: 143.6

Ask: Field request: collision cross section (N2) | item: CNCCCC[C@H](N)C(=O)O
Result: 132.5

Ask: Field request: collision cross section (N2) | item: Cn1cncc1C[C@H](NC(=O)CCN)C(=O)O
Result: 154.1

---

Settings: [M+H]+; instrument: DT; single field, calibrated with ESI Low Concentration Tuning Mix (Agilent)
quantity: collision cross section (N2) (Å²)
I only need the number, in Å², no unit after it.

Illustrative cases are given below, each with its answer.
{"columns": ["compound", "collision cross section (N2), Å²"],
 "data": [
  ["CCCCCCCCCCCC(=O)O[C@H](CC(=O)[O-])C[N+](C)(C)C [LAUROYLCARNITINE]", 199],
  ["NC(=O)c1ccc[n+]([C@@H]2O[C@H](COP(=O)(O)OP(=O)(O)OC[C@H]3O[C@@H](n4cnc5c(=O)nc[nH]c54)[C@H](O)[C@@H]3O)[C@@H](O)[C@H]2O)c1 [NICOTINAMIDE HYPOXANTHINE DINUCLEOTIDE]", 221.1],
  ["Cn1cncc1C[C@H](NC(=O)CCN)C(=O)O [ANSERINE]", 153.8],
  ["Nc1ncnc2c1ncn2C1OC(COP(=O)(O)OP(=O)(O)OCC2OC(O)C(O)C2O)C(O)C1O (configuration not stated) [ADENOSINE DIPHOSPHATE RIBOSE]", 212.4],
  ["COC(=O)Cc1c[nH]c2ccccc12 [INDOLE-3-METHYL ACETATE]", 138.7]
]}

Ask: Field request: collision cross section (N2) | item: N[C@@H](C(=O)O)[C@@H](O)[C@H](O)[C@H](O)CO [GLUCOSAMINATE]
Result: 141.8

Ask: Field request: collision cross section (N2) | item: NC(CS(=O)(=O)O)C(=O)O (configuration not stated) [CYSTEATE]
Result: 140.2
